system-tested: Endothelin-1 receptor (Homo sapiens)
Sequence (P25101 whole entry): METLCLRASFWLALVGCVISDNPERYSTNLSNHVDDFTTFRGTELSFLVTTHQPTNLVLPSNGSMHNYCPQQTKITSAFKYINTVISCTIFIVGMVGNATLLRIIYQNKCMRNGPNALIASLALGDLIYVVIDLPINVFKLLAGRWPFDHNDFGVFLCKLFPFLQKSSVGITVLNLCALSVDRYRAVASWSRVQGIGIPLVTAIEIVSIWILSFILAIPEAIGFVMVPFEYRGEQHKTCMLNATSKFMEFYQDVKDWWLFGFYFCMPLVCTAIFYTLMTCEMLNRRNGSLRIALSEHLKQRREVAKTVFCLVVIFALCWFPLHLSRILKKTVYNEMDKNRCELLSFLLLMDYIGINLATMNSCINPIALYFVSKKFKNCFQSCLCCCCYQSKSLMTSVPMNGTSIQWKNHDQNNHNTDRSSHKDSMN
pIC50: −log10 of the molar value.
readout-label: pIC50

COc1ccc([C@H]2[C@H](C(=O)O)[C@@H](c3ccc4c(c3)OCO4)CN2CC(=O)Nc2c(OC)cccc2OC)cc1 : 7.80

a: CCc1cccc(CC)c1NC(=O)CN1C[C@H](c2ccc3c(c2)OCO3)[C@@H](C(=O)O)[C@@H]1c1ccc(OC(C)C)cc1
b: COc1ccc([C@H]2[C@H](C(=O)O)[C@@H](c3ccc4c(c3)OCO4)CN2CC(=O)Nc2ccc(C)c(C)c2)cc1
c: CCOc1ccc([C@H]2[C@H](C(=O)O)[C@@H](c3ccc4c(c3)OCO4)CN2CC(=O)Nc2c(CC)cccc2CC)cc1 (stereo in doubt; 31)
List items by pIC50 in falling order. Answer by listing the labels in the order asked for.
b, c, a
(b: 7.30, c: 6.04, a: 5.82)
